assay: Half life in CD1 mouse Calu6 tumor xenograft model at 1 mg/kg, iv administered as solution in DMSO and 5 mg/kg, po administered as suspension in 20% captisol in PBS; type: ADME, organism-based; conditions: in vivo
property.measured: half-life (h)
Only the number, expressed in h, is required.

- COc1cc(Nc2nccc(Nc3cnc4ccccc4c3)n2)cc(OC)c1OC: 1.7

Next up:
(Q) For the compound COc1cc(Nc2nccc(Nc3ccc4ncccc4c3)n2)cc(OC)c1OC , give its reported half-life.
(A) 2.3

====

tested on: Rattus norvegicus; test: In vivo clearance in Sprague-Dawley rat
property.measured: CL (L/h/kg)
Only the number, expressed in L/h/kg, is required.

Worked cases, answers included:
* COc1cc(Nc2nccc(Nc3ccc4[nH]ncc4c3)n2)cc(OC)c1OC | 2.4
* COc1ccc(Nc2nccc(Nc3cnc4ccccc4c3)n2)cc1Cl | 2.9
* COc1cc(Nc2nccc(Nc3cc4ccccc4cn3)n2)cc(OC)c1OC | 2.4

(Q) For the molecule COc1cc(Nc2nccc(Nc3cnc4ccccc4c3)n2)cc(OC)c1 , give its reported CL.
(A) 2.9
